tested on: SN12C; assay: NCI tumour cell line growth inhibition, 48 h
Calls of active or inactive are those of the source. Cut-off read from the data, not from the text of the source: active = GI50 up to about 1.1 µM and inactive = higher.
Catalogue of compounds with associated GI50

1. O=C(Nc1nccs1)c1c(O)nc2sccn2c1=O = > 10 µM (inactive)
2. O=C(O)c1cccc2cccc(-c3cccc4cccc(C(=O)O)c34)c12 = > 100 µM (inactive)
3. O=C(Cn1c(=O)ccn(C2OC(CO)C(O)C2F)c1=O)c1ccc(F)cc1 (stereo not given) = > 100 µM (inactive)
4. O=C1CCCCC1C1(O)C(=O)Nc2cc(F)ccc21 (stereo not given) = > 100 µM (inactive)
5. O=C(NCCCCCCCCCCCCNC(=O)c1cnc2ccccc2n1)c1cnc2ccccc2n1 = 66.1 µM (inactive)

Query: Entry under review: "Clc1ccccc1C(Nc1cnccn1)Nc1cnccn1" . Reported GI50?
Result: > 100 µM (inactive)

Query: What would you report for "C1=CCN(c2ccccc2)CC1" ?
Result: 26.3 µM (inactive)

Query: # repeat for "C/C(CC(=O)CCC(=O)Nc1cccc(C(F)(F)F)c1)=N\NC(=O)NN"
Result: > 100 µM (inactive)

Query: Thanks! And "Cc1ccc2c(c1)CN(C(=O)CCC(=O)OCc1ccccc1)c1ccc(C)cc1CN2C(=O)CCC(=O)OCc1ccccc1" ?
Result: > 100 µM (inactive)

Query: Try this compound too: O=C(O[C@H]1[C@@H]2C=CO[C@@H](OC3OC(CO)C(O)C(O)C3O)[C@@H]2[C@@]2(CO)O[C@@H]12)c1ccc(O)c(O)c1 (stereo not given in full)
Result: > 100 µM (inactive)

---

system: OVCAR-5; assay: NCI tumour cell line growth inhibition, 48 h
Calls of active or inactive are those of the source. No stated cut-off is given here; in the data, active = GI50 up to about 1.1 µM and inactive = higher.
The following compounds are listed with their measured GI50 values.

Worked cases, answers included:
1) CCC(=O)OCc1ccc2oc(=O)c(C(=O)Oc3cncc(Cl)c3)cc2c1 = > 100 µM (inactive)
2) CNC(=O)C(NC(=O)[C@H](CC(C)C)NC(=O)[C@@H](S)CCN1C(=O)N(C)C(C)(C)C1=O)C(C)(C)C (stereo not given in full) = > 100 µM (inactive)
3) Cc1c(C#N)c2ccccc2c2nc3ccccc3n12 = > 100 µM (inactive)
4) COc1cc(Br)c(C2OCCCO2)cc1OCc1ccccc1 = > 100 µM (inactive)

Query: # get_value(readout= GI50, system= OVCAR-5) for "Cc1cc(C)c2c(O)cc(-c3cccc4ccccc34)nc2n1"
Result: 2.29 µM (inactive)

---

tested on: HOP-92; assay: NCI tumour cell line growth inhibition, 48 h
Activity calls are given as the source filed them. Cut-off read from the data, not from the text of the source: active = GI50 up to about 1.1 µM and inactive = higher.
The reply should name one outcome from active, inactive

1. C=CN1C(=O)OC[C@@H]1c1ccccc1 = inactive
2. c1ccc2c(c1)Nc1ccccc1[P+]21c2ccccc2Nc2ccccc21 = active
3. CSc1nc2c(nc(N)n2C2OCC(O)C(O)C2O)c(=O)[nH]1 (stereo unspecified) = inactive
4. CC(=O)Nc1ccc(/C=C2\N=C(c3ccccc3)OC2=O)cc1 = inactive

Query: Test call for this molecule, please: "O=C(O)/C(O)=C1/C=C(c2ccccc2)c2ccccc21"
Result: inactive

Query: Same again, this time with "COC(=O)[C@H](C)N1C(=O)N[C@@H](C(C)C)C1=O"
Result: inactive

---

test system: HL-60; assay: NCI tumour cell line growth inhibition, 48 h
Active and inactive are the calls of the source. Cut-off read from the data, not from the text of the source: active = GI50 up to about 1.1 µM and inactive = higher.
Choose one outcome from this list and give only that: active, inactive

Some solved cases for reference:
1) Cc1ccc2[nH]c(=O)c(-c3cnc(O)nn3)c(O)c2c1 = inactive
2) N/C(=N\c1ccc(Cl)cc1)NS(=O)(=O)c1cccc2nsnc12 = inactive
3) CCOC(=S)SC/C(=N\OC(C)(C)OC)c1ccccc1 = inactive
4) CC(NNC(=O)c1ccncc1)c1cccc(C(F)(F)F)c1 (stereo unspecified) = inactive
5) CCCC(=O)N[C@H]1CCc2cc(OC)c(OC)c(OC)c2-c2ccc(SC)c(=O)cc21 = active

Now take the following molecule into account.
Query: Record lookup: outcome of this test for "CC(=O)Nc1ccc(/C=C2\N=C(c3ccccc3)OC2=O)cc1" ?
Result: inactive
